The measurements presented in this section are drawn from ChEMBL document CHEMBL1138964.

experimental target: Acetylcholinesterase (Homo sapiens, UniProt P22303)
Sequence (P22303 whole entry): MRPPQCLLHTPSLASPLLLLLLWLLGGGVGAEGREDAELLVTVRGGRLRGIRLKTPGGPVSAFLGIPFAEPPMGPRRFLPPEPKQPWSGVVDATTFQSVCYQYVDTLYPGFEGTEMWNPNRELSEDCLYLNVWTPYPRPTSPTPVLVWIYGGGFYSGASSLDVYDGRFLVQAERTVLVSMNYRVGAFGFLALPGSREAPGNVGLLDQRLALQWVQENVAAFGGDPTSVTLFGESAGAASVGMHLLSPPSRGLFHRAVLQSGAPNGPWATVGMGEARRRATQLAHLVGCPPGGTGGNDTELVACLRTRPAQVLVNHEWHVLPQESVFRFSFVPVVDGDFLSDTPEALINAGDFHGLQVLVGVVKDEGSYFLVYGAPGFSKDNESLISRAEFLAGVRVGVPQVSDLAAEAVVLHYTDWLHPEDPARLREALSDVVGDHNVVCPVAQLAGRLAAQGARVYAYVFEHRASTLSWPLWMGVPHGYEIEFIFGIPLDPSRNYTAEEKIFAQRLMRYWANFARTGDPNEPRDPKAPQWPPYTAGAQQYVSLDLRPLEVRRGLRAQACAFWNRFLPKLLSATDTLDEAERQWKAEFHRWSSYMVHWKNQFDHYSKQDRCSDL
procedure summary: Inhibition of human serum AchE
reported endpoint: pIC50
pIC50 is a log-scale quantity: -log10 of the concentration expressed in molar.

Request the reported pIC50 associated with CC1=C(CCN2CCN(C(c3ccc(F)cc3)c3ccc(F)cc3)CC2)C(=O)C2CCCCC2=N1 (stereo not drawn)
5.97

Request the reported pIC50 associated with Fc1ccc(C(c2ccc(F)cc2)N2CCN(CCN3CCCCC3)CC2)cc1
6.90

Request the reported pIC50 associated with N#Cc1ccccc1-c1ccc(CN2CCN(C(c3ccc(F)cc3)c3ccc(F)cc3)CC2)cc1
7.13

Request the reported pIC50 associated with Cc1cc2c(cc1CN1CCN(C(c3ccc(F)cc3)c3ccc(F)cc3)CC1)OCO2
5.87

Request the reported pIC50 associated with Fc1ccc(C(c2ccc(F)cc2)N2CCN(CCN3CCOCC3)CC2)cc1
6.55

Request the reported pIC50 associated with Fc1ccc(C(c2ccc(F)cc2)N2CCN(CCN3CCCC3)CC2)cc1
7.68

Request the reported pIC50 associated with COc1cc(Br)c(CN2CCN(C(c3ccc(F)cc3)c3ccc(F)cc3)CC2)cc1OC
5.99

Request the reported pIC50 associated with Cc1nc2ccccn2c(=O)c1CCN1CCN(C(c2ccc(F)cc2)c2ccc(F)cc2)CC1
5.49
